# System: 873145-292-R-J1-PDC complex spheroid viability;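 note: luminescence signal used as surrogate for viable cell content; spheroids exposed to compounds for 7 days before viability readout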
# Protocol description: Anticancer human tumor 873145-292-R-J1-PDC patient-derived renal clear cell carcinoma cell line growth inhibition [POLQ]
# Conditions: second compound 0.316 µM; first compound 0.316 µM; stronger effect = lower value
# Procedure: Multicellular complex tumor spheroid response to Polymerase (POL) inhibitors (novobiocin, ART-558, RP6685) in combination with a variety of drugs and investigational agents in selected tumor cell lines The POL inhibitors (novobiocin, ART-558, and RP6685) were evaluated both individually and in combination with standard of care and investigational anticancer small molecules within a complex spheroid model of solid tumors. . […]
// assign Y if viability, T/C falls strictly below 80%, else N (ties count as N)

{"columns": ["Molecule", "Target or system", "Class assignment"],
 "data": [
  ["COc1cc(C2c3cc4c(cc3C(OC3OC5COC(C)OC5C(O)C3O)C3COC(=O)C23)OCO4)cc(OC)c1O (stereo not given) + COC1C(OC(N)=O)C(O)C(Oc2ccc3c(O)c(NC(=O)c4ccc(O)c(CC=C(C)C)c4)c(=O)oc3c2C)OC1(C)C", "873145-292-R-J1-PDC complex spheroid viability", "N"],
  ["COc1ccc([C@@H](O)c2cc(-c3ncnc4cc(N5CCOCC5)ccc34)c(F)cc2Cl)nn1 + Cc1cccc(N(C)C(=O)C2C(O)CCN2c2nc(C)cc(C(F)(F)F)c2C#N)c1", "873145-292-R-J1-PDC complex spheroid viability", "Y"],
  ["C#Cc1c(F)ccc2cc(O)cc(-c3ncc4c(N5CC6CCC(C5)N6)nc(OCC56CCCN5CC(F)C6)nc4c3F)c12 (stereo not given) + Nc1ccc(C#CCN(C(=O)Cc2ncc(C(F)(F)F)cc2C(F)(F)F)c2ccc(F)cc2)nn1", "873145-292-R-J1-PDC complex spheroid viability", "N"],
  ["CNCc1ccc(-c2[nH]c3cc(F)cc4c3c2CCNC4=O)cc1 + Nc1ccc(C#CCN(C(=O)Cc2ncc(C(F)(F)F)cc2C(F)(F)F)c2ccc(F)cc2)nn1", "873145-292-R-J1-PDC complex spheroid viability", "N"],
  ["CCc1c2c(nc3ccc(O)cc13)-c1cc3c(c(=O)n1C2)COC(=O)[C@]3(O)CC + COC1C(OC(N)=O)C(O)C(Oc2ccc3c(O)c(NC(=O)c4ccc(O)c(CC=C(C)C)c4)c(=O)oc3c2C)OC1(C)C", "873145-292-R-J1-PDC complex spheroid viability", "Y"],
  ["COc1ccc([C@@H](O)c2cc(-c3ncnc4cc(N5CCOCC5)ccc34)c(F)cc2Cl)nn1 + Nc1ccc(C#CCN(C(=O)Cc2ncc(C(F)(F)F)cc2C(F)(F)F)c2ccc(F)cc2)nn1", "873145-292-R-J1-PDC complex spheroid viability", "Y"],
  ["C=CC(=O)N1CCN(c2nc(=O)n(-c3c(C)ccnc3C(C)C)c3nc(-c4c(O)cccc4F)c(F)cc23)C(C)C1 (stereo not given) + Cc1cccc(N(C)C(=O)C2C(O)CCN2c2nc(C)cc(C(F)(F)F)c2C#N)c1", "873145-292-R-J1-PDC complex spheroid viability", "N"],
  ["CNCc1ccc(-c2[nH]c3cc(F)cc4c3c2CCNC4=O)cc1 + COC1C(OC(N)=O)C(O)C(Oc2ccc3c(O)c(NC(=O)c4ccc(O)c(CC=C(C)C)c4)c(=O)oc3c2C)OC1(C)C", "873145-292-R-J1-PDC complex spheroid viability", "N"],
  ["CCc1cc2c(N3CCc4c(cc(Cn5ccnc5)cc4-c4cn(C)nc4C(F)(F)F)C3=O)cc(C)nc2c(OC)n1 + Nc1ccc(C#CCN(C(=O)Cc2ncc(C(F)(F)F)cc2C(F)(F)F)c2ccc(F)cc2)nn1", "873145-292-R-J1-PDC complex spheroid viability", "Y"]
]}

Reference for the values: PubChem BioAssay AID1963834
